Biological target: Human Calpain 9/NS1 (Homo sapiens)
Sequence (O14815 1-690): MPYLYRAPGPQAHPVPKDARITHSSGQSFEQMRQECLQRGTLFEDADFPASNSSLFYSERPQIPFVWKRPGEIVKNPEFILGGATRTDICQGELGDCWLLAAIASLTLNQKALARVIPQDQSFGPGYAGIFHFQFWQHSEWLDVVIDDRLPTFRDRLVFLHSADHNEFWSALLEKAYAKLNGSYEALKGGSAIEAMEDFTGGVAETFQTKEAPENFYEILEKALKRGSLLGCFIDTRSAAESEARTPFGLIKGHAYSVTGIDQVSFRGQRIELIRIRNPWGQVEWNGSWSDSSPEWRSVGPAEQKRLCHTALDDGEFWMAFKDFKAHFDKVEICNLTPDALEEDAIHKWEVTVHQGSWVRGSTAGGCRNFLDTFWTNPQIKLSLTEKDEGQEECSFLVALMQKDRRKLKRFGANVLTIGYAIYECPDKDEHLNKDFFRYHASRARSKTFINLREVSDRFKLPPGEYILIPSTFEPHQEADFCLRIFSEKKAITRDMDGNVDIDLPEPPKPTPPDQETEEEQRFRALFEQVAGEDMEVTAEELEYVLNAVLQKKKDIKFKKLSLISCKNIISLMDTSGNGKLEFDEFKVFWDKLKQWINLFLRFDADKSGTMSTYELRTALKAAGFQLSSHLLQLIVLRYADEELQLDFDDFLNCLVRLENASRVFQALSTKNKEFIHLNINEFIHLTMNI
Sequence (P04632 1-268 partner): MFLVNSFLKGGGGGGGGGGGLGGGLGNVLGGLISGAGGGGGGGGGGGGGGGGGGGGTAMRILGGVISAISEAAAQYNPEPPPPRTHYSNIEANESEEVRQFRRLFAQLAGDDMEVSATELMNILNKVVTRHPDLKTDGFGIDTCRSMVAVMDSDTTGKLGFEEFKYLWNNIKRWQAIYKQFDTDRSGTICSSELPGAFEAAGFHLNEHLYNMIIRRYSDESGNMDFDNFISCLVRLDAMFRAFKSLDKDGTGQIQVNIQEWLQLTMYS
Experiment: Calpain inhibition continuous fluorescence (FRET) assay, Human Calpain 9/NS1
Format: biochemical
Details: read-out: Human Calpain 9/NS1 IC50
pIC50: −log10 of the molar value.
quantity_measured: pIC50

Some compounds with recorded pIC50:
COc1cc(C(=O)NC(Cc2ccccc2)C(=O)C(N)=O)n(-c2ccccc2)n1 (stereo not shown) ... < 5.00
COc1ccc(F)c(-c2oncc2C(=O)NC(Cc2ccccc2)C(=O)C(N)=O)c1 (stereo not shown) ... > 5.52
NC(=O)C(=O)C(Cc1ccccc1)NC(=O)c1cn(C(F)F)nc1-c1cncc2ccccc12 (stereo not shown) ... > 5.52

Next compound, please.
Query block: Item under review: Cc1c(F)cccc1-c1oncc1C(=O)NC(Cc1ccccc1)C(=O)C(N)=O (stereo not shown) . Reported pIC50?
Result block: > 5.52
